test: Half life in CD-1 mouse at 2 mg/kg,iv
Type: ADME, organism-based
conditionDetails: in vivo
assayMetric: half-life (h)
Respond numerically; units are h and should not be typed.

Worked examples, 2 molecules total:
{"columns": ["querySmiles", "assayMetric", "recordedNumber"],
 "data": [
  ["O=C(N[C@H]1CCc2c(C(=O)Nc3ccc(F)c(Cl)c3)ccc(F)c21)OCc1ccccn1", "half-life", 1.2],
  ["Cn1cnc(COC(=O)N[C@H]2CCc3c(C(=O)Nc4ccc(F)c(Cl)c4)ccc(F)c32)n1", "half-life", 2.5]
]}

q: Quickly give me recorded half-life for `Cn1ccc(COC(=O)N[C@H]2CCc3c(C(=O)Nc4ccc(F)c(Cl)c4)ccc(F)c32)n1`
a: 3.5

###

test: in vivo
conditionDetails: rat, po, 10 mg/kg
Description: AUC (0-infinity) in rat at 10 mg/kg,po
assayMetric: AUC(0-inf) (ng·h/mL)
// units = ng·h/mL; emit number, no label

q: Provide one value: measured AUC(0-inf) of `Cn1cnc(COC(=O)N[C@H]2CCc3c(C(=O)Nc4ccc(F)c(Cl)c4)ccc(F)c32)n1`
a: 39600

###

test: Clearance in CD-1 mouse at 2 mg/kg,iv
Assay type: ADME, organism-based
conditionDetails: in vivo
assayMetric: clearance
Mention the unit after the number when you answer.

{"columns": ["querySmiles", "result"],
 "data": [
  ["Cn1ccc(COC(=O)N[C@H]2CCc3c(C(=O)Nc4ccc(F)c(Cl)c4)ccc(F)c32)n1", "19 mL/min/kg"],
  ["Cn1cnc(COC(=O)N[C@H]2CCc3c(C(=O)Nc4ccc(F)c(Cl)c4)ccc(F)c32)n1", "18 mL/min/kg"]
]}

Proceeding to the next compound to report its clearance.
q: Kindly indicate its recorded clearance. Item: `O=C(N[C@H]1CCc2c(C(=O)Nc3ccc(F)c(Cl)c3)ccc(F)c21)OCc1ccccn1`
a: 28 mL/min/kg

###

test: AUC (0-infinity) in CD-1 mouse at 10 mg/kg,po
Assay type: ADME, organism-based
Design: dose 10 mg/kg, route po
conditionDetails: in vivo
assayMetric: AUC(0-inf) (ng·h/mL)
Dear colleague, please return just the value in ng·h/mL, with no unit written.

{"columns": ["querySmiles", "recordedNumber"],
 "data": [
  ["Cn1ccc(COC(=O)N[C@H]2CCc3c(C(=O)Nc4ccc(F)c(Cl)c4)ccc(F)c32)n1", 5160]
]}

q: For the compound `Cn1cnc(COC(=O)N[C@H]2CCc3c(C(=O)Nc4ccc(F)c(Cl)c4)ccc(F)c32)n1` , report AUC(0-inf).
a: 9870

q: For the compound `O=C(N[C@H]1CCc2c(C(=O)Nc3ccc(F)c(Cl)c3)ccc(F)c21)OCc1ccccn1` , report AUC(0-inf).
a: 7230

###

# CC50 at 48 h listing for each entry below
test: Cytotoxicity against human HepDE19 cells incubated for 48 hrs by cell titer-glo luminescent based cell viability assay
Format: toxicity

Consider the following illustrative entries.
{"columns": ["querySmiles", "CC50 at 48 h"],
 "data": [
  ["COC(=O)N[C@H]1CCOc2c(C(=O)Nc3ccc(F)c(Cl)c3)cccc21", "> 25 µM"],
  ["COC(=O)N[C@H]1CCOc2c(C(=O)Nc3cc(F)c(F)c(F)c3)cccc21", "> 25 µM"]
]}

Here's the next entry for you.
q: Determine its reported CC50 at 48 h: `COC(=O)N[C@H]1CCOc2c(C(=O)Nc3ccc(F)c(F)c3)ccc(F)c21`
a: > 25 µM
